test system: FU100; settings: in the presence of S9 activation (+); approximate, first dose with greater than 50% survival by optical density on Day 1
reportedProperty: LD50

>>> observedresult("Cc1cccc(Nc2cc(Cl)nc(SCC(=O)O)n2)c1C")
">900 µg/mL"
>>> observedresult("CC1CCC(C(C)C)C(O)C1 (centres unmarked)")
">9 µg/mL"
>>> observedresult("COc1ccc2nc3cc(Cl)ccc3c(NCCCNCCCl)c2c1")
">10 µg/mL"

Form field: reported LD50 of ClCc1ccccc1 [Benzyl Chloride]
>150 µg/mL

Okay, and Nc1ccc2cc3ccccc3cc2c1 ?
>2 µg/mL

Okay, and CCCCC(CC)COC(=O)c1ccccc1C(=O)OCC(CC)CCCC (centres unmarked) [Di (2-ethylhexyl) phthalate] ?
>5000 µg/mL

Okay, and CCC1CO1 (centres unmarked) ?
>5000 µg/mL

Okay, and [N-]=[N+]=[N-] [Sodium Azide] ?
>30 µg/mL

Okay, and CC/C(=C(\c1ccccc1)c1ccc(OCCN(C)C)cc1)c1ccccc1 ?
>15 µg/mL

Okay, and CCCCCCCCCCCCOS(=O)(=O)[O-].[Na+] [Sodium Dodecyl Sulfate] ?
>35 µg/mL

Okay, and O=Cc1ccccc1 ?
>150 µg/mL

* * *

test system: FU100; settings: in the presence of S9 activation (+); approximate, first dose with greater than 50% survival by optical density on Day 1
Structures can show the parent of a compound that is named as a salt.
Entries and their LD50 values follow.

Some molecules with known LD50 results, for comparison:
>>> observedresult("O=[N+]([O-])c1ccc2c(c1)Cc1ccccc1-2")
">2 µg/mL"
>>> observedresult("C[S+](C)[O-] [Dimethyl Sulfoxide]")
">5000 µg/mL"
>>> observedresult("CN(C)N=O")
">2000 µg/mL"

Form field: reported LD50 of Nc1ccc2cc3ccc(N)cc3nc2c1 [Proflavine HCl]
>10 µg/mL

Okay, and COc1ccc(O)c(C(C)(C)C)c1 [Butylated Hydroxyanisole] ?
>30 µg/mL

Okay, and COS(C)(=O)=O [Methyl Methanesulfonate] ?
>100 µg/mL

Okay, and Nc1ncn([C@@H]2O[C@H](CO)[C@@H](O)[C@H]2O)c(=O)n1 ?
>5 µg/mL

Okay, and CCC1(c2ccccc2)C(=O)NC(=O)NC1=O ?
>500 µg/mL

Okay, and O=P1(N(CCCl)CCCl)NCCCO1 (centres unmarked) [Cyclophosphamide•H2O] ?
>300 µg/mL

Okay, and CN(C)[C@@H]1C(O)=C(C(N)=O)C(=O)[C@@]2(O)C(O)=C3C(=O)c4c(O)cccc4[C@@](C)(O)[C@H]3C[C@@H]12 [Tetracycline HCl] ?
>0.1 µg/mL

Okay, and CN(N=O)C(N)=O ?
>90 µg/mL

Okay, and Nc1ccc([N+](=O)[O-])cc1O ?
>150 µg/mL

Okay, and O=[N+]([O-])c1ccc(O)cc1 ?
>50 µg/mL

Okay, and O=[N+]([O-])c1cc[n+]([O-])c2ccccc12 [4-Nitroquinoline N-oxide] ?
>0.5 µg/mL

* * *

test system: FU100; settings: without S9 activation (−); lowest dose tested giving a positive response
Where a name gives a salt, the structure may show the parent alone.
Entries and their Lowest Positive Dose values follow.
Numbers only here, please. The scale is µg/mL.

>>> observedresult("CCC1(c2ccccc2)C(=O)NC(=O)NC1=O [Phenobarbital]")
2800
>>> observedresult("Nc1ccc([N+](=O)[O-])cc1O [2-Amino-5-nitrophenol]")
2.8
>>> observedresult("O=[N+]([O-])c1ccc2c(c1)Cc1ccccc1-2 [2-Nitrofluorene]")
0.02
>>> observedresult("Cl.Nc1c2ccccc2nc2ccccc12.O [9-Aminoacridine•HCl•H2O]")
16
>>> observedresult("Nc1ccc2cc3ccccc3cc2c1 [2-Aminoanthracene]")
0.6

Form field: reported Lowest Positive Dose of Cc1ccc2cc3c(ccc4ccccc43)c3c2c1CC3 [20-Methylcholanthrene]
5

Okay, and CCC1CO1 (stereo not shown) [1,2-Epoxybutane] ?
8.9

Okay, and CN(N=O)C(N)=O [N-Nitroso-N-methylurea] ?
5.0

Okay, and COc1ccc2nc3cc(Cl)ccc3c(NCCCNCCCl)c2c1 [ICR-191] ?
0.2

Okay, and [N-]=[N+]=[N-] [Sodium Azide] ?
160

Okay, and Nc1ccc2cc3ccc(N)cc3nc2c1 [Proflavine HCl] ?
16

Okay, and ClCc1ccccc1 [Benzyl Chloride] ?
28

Okay, and COS(C)(=O)=O [Methyl Methanesulfonate] ?
0.6

* * *

test system: FU100; conditions: in the presence of S9 activation (+); FU100; 2 h exposure
reportedProperty: Results (5-FU assay)

Some compounds with known Results (5-FU assay) results, for comparison:
>>> observedresult("CC1CCC(C(C)C)C(O)C1 (stereo not shown)")
"Neg"
>>> observedresult("COc1ccc2nc3cc(Cl)ccc3c(NCCCNCCCl)c2c1")
"Pos"
>>> observedresult("O=[N+]([O-])c1ccc2c(c1)Cc1ccccc1-2")
"Pos"
>>> observedresult("Nc1ccc([N+](=O)[O-])cc1O")
"Neg"
>>> observedresult("Oc1ccc(Cl)cc1Cl")
"Neg"

Form field: reported Results (5-FU assay) of CN(N=O)C(N)=O
Pos

Okay, and C[C@H](CCC(=O)O)[C@H]1CC[C@H]2[C@@H]3CC[C@@H]4C[C@H](O)CC[C@]4(C)[C@H]3CC[C@]12C ?
Neg

* * *

tested on: FU100; settings: without S9 activation (−); approximate, first dose with greater than 50% survival by optical density on Day 1
Structures can show the parent of a compound that is named as a salt.
Entries and their LD50 values follow.

Some compounds with known LD50 results, for comparison:
>>> observedresult("O=[N+]([O-])c1cc[n+]([O-])c2ccccc12 [4-Nitroquinoline N-oxide]")
">0.5 µg/mL"
>>> observedresult("CN(C)[C@@H]1C(O)=C(C(N)=O)C(=O)[C@@]2(O)C(O)=C3C(=O)c4c(O)cccc4[C@@](C)(O)[C@H]3C[C@@H]12 [Tetracycline HCl]")
">0.1 µg/mL"

Moving on to the next compound.
Form field: reported LD50 of CCC1CO1 (stereo not drawn) [1,2-Epoxybutane]
>5000 µg/mL

* * *

test system: FU100; conditions: without S9 activation (−); FU100; 2 h exposure
reportedProperty: Results (5-FU assay)

Some compounds with known Results (5-FU assay) results, for comparison:
>>> observedresult("CC1CCC(C(C)C)C(O)C1 (stereo not shown) [Menthol]")
"Neg"
>>> observedresult("O=[N+]([O-])c1ccc2c(c1)Cc1ccccc1-2 [2-Nitrofluorene]")
"Pos"
>>> observedresult("Nc1ccc2cc3ccccc3cc2c1 [2-Aminoanthracene]")
"Pos"
>>> observedresult("Nc1ccc([N+](=O)[O-])cc1O [2-Amino-5-nitrophenol]")
"Pos"
>>> observedresult("OCc1ccccc1 [Benzyl Alcohol]")
"Neg"
>>> observedresult("COc1ccc2nc3cc(Cl)ccc3c(NCCCNCCCl)c2c1 [ICR-191]")
"Pos"
>>> observedresult("CN(N=O)C(N)=O [N-Nitroso-N-methylurea]")
"Pos"
>>> observedresult("COS(C)(=O)=O [Methyl Methanesulfonate]")
"Pos"

Form field: reported Results (5-FU assay) of O=P1(N(CCCl)CCCl)NCCCO1 (stereo not shown) [Cyclophosphamide•H2O]
Neg

Okay, and Cc1ccc2cc3c(ccc4ccccc43)c3c2c1CC3 [20-Methylcholanthrene] ?
Pos

* * *

system: FU100; conditions: text and figure legend (FIG. 6), with or without S9
reportedProperty: response in the 5-FU Assay (in words)

>>> observedresult("OO [Hydrogen Peroxide]")
"easy to detect"
>>> observedresult("ClCc1ccccc1 [Benzyl Chloride]")
"easy to detect"

* * *

system: FU100; conditions: in the presence of S9 activation (+); FU100; 2 h exposure
reportedProperty: Results (5-FU assay)

>>> observedresult("CCC1(c2ccccc2)C(=O)NC(=O)NC1=O")
"Pos^w"
>>> observedresult("Nc1ccc2cc3ccccc3cc2c1")
"Pos"
>>> observedresult("Cc1cccc(Nc2cc(Cl)nc(SCC(=O)O)n2)c1C")
"Neg"

* * *

tested on: FU100; details: without S9 activation (−); FU100; 2 h exposure
Structures can show the parent of a compound that is named as a salt.
reportedProperty: Results (5-FU assay)

>>> observedresult("CC(C)(OOC(C)(C)c1ccccc1)c1ccccc1 [Dicumyl peroxide]")
"Neg"
>>> observedresult("C[S+](C)[O-] [Dimethyl Sulfoxide]")
"Neg"
>>> observedresult("CCC1(c2ccccc2)C(=O)NC(=O)NC1=O")
"Pos^w"
>>> observedresult("O=c1ccc2ccccc2o1")
"Neg"
>>> observedresult("Oc1ccc(Cl)cc1Cl")
"Neg"

Form field: reported Results (5-FU assay) of Nc1ccc2cc3ccc(N)cc3nc2c1 [Proflavine HCl]
Pos^w

Okay, and COc1ccc(O)c(C(C)(C)C)c1 [Butylated Hydroxyanisole] ?
Neg

Okay, and O=Cc1ccccc1 ?
Neg
